# tested.system: human kinase Mps-1 (Homo sapiens, UniProt P33981)
# Construct: N-terminally GST-tagged human full length recombinant Mps-1 kinase
# assay.summary: Mps-1 kinase assay (TR-FRET, 10 μM ATP)
# condition: N-terminally GST-tagged human full length recombinant Mps-1, read-out: Mps-1 Inhibition, IC50 (Assay with 10 μM ATP)
metric.name: IC50 (nM)

N#Cc1ccccc1Nc1nc2cnc(-c3cccc(C(=O)NC4CC4)c3)cn2n1: 84.1

P = Cc1cc(-c2cn3nc(Nc4ccccc4C#N)nc3cn2)cc(C)c1O
Q = Nc1nc2ccc(-c3ccc(NC(=O)Cc4ccc(F)cc4)cc3)cc2s1
Input: Consider P and Q . Which of these has its IC50 at a higher number? Answer format: the label of the selected item.
Output: P

----------
# tested.system: human kinase Mps-1 (Homo sapiens)
# Construct: N-terminally GST-tagged human full length recombinant Mps-1 kinase
# Sequence (P33981 1-857): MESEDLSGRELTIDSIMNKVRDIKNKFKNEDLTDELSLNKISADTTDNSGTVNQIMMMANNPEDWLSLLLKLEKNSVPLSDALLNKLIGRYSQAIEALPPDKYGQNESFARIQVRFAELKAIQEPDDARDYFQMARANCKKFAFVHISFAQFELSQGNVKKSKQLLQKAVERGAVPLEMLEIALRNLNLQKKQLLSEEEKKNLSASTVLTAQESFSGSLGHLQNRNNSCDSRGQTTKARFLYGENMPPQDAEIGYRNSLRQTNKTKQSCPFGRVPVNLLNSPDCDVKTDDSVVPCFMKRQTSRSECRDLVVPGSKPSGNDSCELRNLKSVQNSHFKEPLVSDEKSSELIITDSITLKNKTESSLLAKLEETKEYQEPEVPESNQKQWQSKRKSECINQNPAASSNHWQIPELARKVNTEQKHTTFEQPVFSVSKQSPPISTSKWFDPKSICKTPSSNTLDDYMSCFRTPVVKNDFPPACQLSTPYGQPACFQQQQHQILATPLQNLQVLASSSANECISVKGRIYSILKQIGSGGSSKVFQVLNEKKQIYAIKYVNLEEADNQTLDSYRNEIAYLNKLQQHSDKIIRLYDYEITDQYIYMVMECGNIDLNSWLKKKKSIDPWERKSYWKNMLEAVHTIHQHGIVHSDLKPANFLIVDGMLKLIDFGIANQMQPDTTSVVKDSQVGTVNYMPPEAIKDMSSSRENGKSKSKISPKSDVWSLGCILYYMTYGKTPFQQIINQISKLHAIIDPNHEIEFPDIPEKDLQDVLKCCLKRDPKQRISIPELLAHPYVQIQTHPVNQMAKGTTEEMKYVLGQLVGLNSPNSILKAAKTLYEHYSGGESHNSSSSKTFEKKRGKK
# assay.summary: Mps-1 kinase assay (TR-FRET, 10 μM ATP)
# condition: N-terminally GST-tagged human full length recombinant Mps-1, read-out: Mps-1 Inhibition, IC50 (Assay with 10 μM ATP)
pIC50: −log10 of the molar value.
metric.name: pIC50

N#Cc1c(F)cccc1Nc1nc2cnc(-c3ccc(NC(=O)CC4CC4)cc3)cn2n1: 7.84

A = N#Cc1ccccc1Nc1nc2cnc(-c3ccc(NC(=O)CC4CC4)cc3)cn2n1
B = N#Cc1ccccc1Nc1nc2cnc(-c3cccc(C(=O)NC4CCCCC4)c3)cn2n1
C = COc1cc(S(C)(=O)=O)ccc1Nc1nc2ccc(-c3ccc(NC(=O)Cc4ccc(F)cc4)cc3)cc2s1
D = N#Cc1ccccc1Nc1nc2cnc(-c3cccc(C(=O)NC4CCCC4)c3)cn2n1
Input: Rank by pIC50 (largest to smallest). // list labels; follow requested order
Output: C, A, D, B

1 = COc1ccccc1Nc1nc2cnc(-c3cc(C)c(O)c(C)c3)cn2n1
2 = N#Cc1ccccc1Nc1nc2cnc(-c3ccc(NC(=O)Cc4ccccc4)cc3)cn2n1
Input: When 1 and 2 are compared, which has the higher number for pIC50? Return value: the label identifying the chosen record.
Output: 2

1 = CCNC(=O)c1cccc(-c2cn3nc(Nc4ccccc4C#N)nc3cn2)c1
2 = N#Cc1ccccc1Nc1nc2cnc(-c3ccc(N)cc3)cn2n1
Input: Which value of pIC50 is smaller, the one for 1 or the one for 2 ? Indicate your choice by writing its label.
Output: 2
(2: 6.35, 1: 6.69)

----------
# tested.system: human kinase Mps-1 (Homo sapiens, UniProt P33981)
# Construct: N-terminally GST-tagged human full length recombinant Mps-1 kinase
# assay.summary: Mps-1 kinase assay (TR-FRET, 10 μM ATP)
# condition: N-terminally GST-tagged human full length recombinant Mps-1, read-out: Mps-1 Inhibition, IC50 (Assay with 10 μM ATP)
pIC50: −log10 of the molar value.
metric.name: pIC50

N#Cc1c(F)cccc1Nc1nc2cnc(-c3ccc(NC(=O)Cc4ccc(F)c(F)c4)cc3)cn2n1 [Example 2.7]: 8.54
N#Cc1ccccc1Nc1nc2cnc(-c3ccc(NC(=O)Cc4ccc(F)c(F)c4)cc3)cn2n1 [Example 2.6]: 8.68

----------
pIC50 reference
# tested.system: human kinase Mps-1 (Homo sapiens)
# Construct: N-terminally GST-tagged human full length recombinant Mps-1 kinase
# Sequence (P33981 1-857): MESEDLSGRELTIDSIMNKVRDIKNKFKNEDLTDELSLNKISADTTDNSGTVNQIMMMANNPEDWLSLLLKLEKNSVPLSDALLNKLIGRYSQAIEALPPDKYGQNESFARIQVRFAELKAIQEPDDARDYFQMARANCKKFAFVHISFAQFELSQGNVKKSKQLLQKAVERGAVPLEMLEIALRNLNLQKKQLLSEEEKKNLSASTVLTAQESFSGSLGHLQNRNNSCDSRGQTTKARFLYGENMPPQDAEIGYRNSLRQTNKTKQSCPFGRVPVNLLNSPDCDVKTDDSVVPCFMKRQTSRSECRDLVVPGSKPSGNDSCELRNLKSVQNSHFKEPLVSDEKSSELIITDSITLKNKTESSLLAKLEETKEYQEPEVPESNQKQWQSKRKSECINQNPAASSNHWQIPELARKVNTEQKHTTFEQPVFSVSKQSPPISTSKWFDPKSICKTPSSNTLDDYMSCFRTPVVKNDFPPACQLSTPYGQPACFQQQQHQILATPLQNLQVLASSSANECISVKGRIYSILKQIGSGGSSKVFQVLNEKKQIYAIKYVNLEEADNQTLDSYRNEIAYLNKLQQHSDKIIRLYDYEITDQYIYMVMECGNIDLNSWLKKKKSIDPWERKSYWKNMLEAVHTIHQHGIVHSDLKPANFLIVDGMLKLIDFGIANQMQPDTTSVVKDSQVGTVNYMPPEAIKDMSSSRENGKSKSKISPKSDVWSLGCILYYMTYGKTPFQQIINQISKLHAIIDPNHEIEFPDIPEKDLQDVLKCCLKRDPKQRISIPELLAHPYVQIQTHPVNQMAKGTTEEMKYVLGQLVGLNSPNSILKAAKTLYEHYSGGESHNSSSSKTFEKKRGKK
# assay.summary: Mps-1 kinase assay (TR-FRET, 10 μM ATP)
# condition: N-terminally GST-tagged human full length recombinant Mps-1, read-out: Mps-1 Inhibition, IC50 (Assay with 10 μM ATP)
pIC50: −log10 of the molar value.

N#Cc1c(F)cccc1Nc1nc2cnc(-c3ccc(NC(=O)Cc4ccc(F)cc4)cc3)cn2n1: ≥ 9.00
N#Cc1ccccc1Nc1nc2cnc(-c3ccc(NC(=O)Cc4ccc(F)cc4)cc3)cn2n1: ≥ 9.00

Pending molecule:
Input: Endpoint output: pIC50 of C[C@@H](C(=O)Nc1ccc(-c2ccn3nc(Nc4ccc(C(=O)N5CC(F)C5)cc4OCC(F)(F)F)nc3c2)cc1)c1ccc(F)cc1 . Value?
Output: ≥ 9.00
